Value source: paper PMC9214071

assayed-system: PAK1 (Homo sapiens, UniProt Q13153)
Sequence (Q13153 whole entry): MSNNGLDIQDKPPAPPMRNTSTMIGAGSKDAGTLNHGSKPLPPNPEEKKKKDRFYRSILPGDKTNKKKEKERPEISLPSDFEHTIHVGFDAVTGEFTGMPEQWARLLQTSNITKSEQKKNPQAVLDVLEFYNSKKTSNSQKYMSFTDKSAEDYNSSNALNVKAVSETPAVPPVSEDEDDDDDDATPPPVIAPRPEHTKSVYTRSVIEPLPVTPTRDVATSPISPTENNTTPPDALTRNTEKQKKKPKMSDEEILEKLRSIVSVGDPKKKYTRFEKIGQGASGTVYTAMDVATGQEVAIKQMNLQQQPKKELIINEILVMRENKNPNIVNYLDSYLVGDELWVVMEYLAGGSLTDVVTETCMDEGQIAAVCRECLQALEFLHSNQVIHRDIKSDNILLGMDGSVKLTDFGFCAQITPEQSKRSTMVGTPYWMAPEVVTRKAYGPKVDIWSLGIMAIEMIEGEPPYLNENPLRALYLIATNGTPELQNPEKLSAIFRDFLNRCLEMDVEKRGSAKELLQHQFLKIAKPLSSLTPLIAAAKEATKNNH
method-summary: PAK1 FRET-based Z'-Lyte assay
Format: biochemical
experimental-context: at least two duplicate experiments, SEM < ±20%
pKi: −log10 of the molar value.
value-kind: pKi

Solved entries (count: 3):
- compound: "Nc1nccc(-n2cc(C(=O)N3CC[C@@H](N)C3)c3ccc(C#CC4(O)CCCCC4)cc32)n1"
  endpoint-value: 5.20
- compound: "COCCNc1nc2ccc(C#CC3(O)CCCCC3)cc2n1-c1ccnc(N)n1 [GNE-2861, reference compound]"
  endpoint-value: 5.50
- compound: "Nc1nccc(-n2cc(C(=O)N3CCNC(=O)C3)c3ccc(C#CC4(O)CCCCC4)cc32)n1"
  endpoint-value: 5.30

(A) Nc1nccc(-n2cc(C(=O)NC3CCNCC3)c3ccc(C#CC4(O)CCCCC4)cc32)n1
(B) Nc1nccc(-n2cc(C(=O)N3CCC[C@H](N)C3)c3ccc(C#CC4(O)CCCCC4)cc32)n1
(C) Nc1nccc(-n2cc(C(=O)N3CCC[C@@H](N)C3)c3ccc(C#CC4(O)CCCCC4)cc32)n1
rank_up(items): orders items by reported pKi in ascending numerical order. // ordering of labels required in reply C, A, B
